Data provenance is the supplement of paper PMC9112550.

Test system: Escherichia coli TOP10;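 further: peptides expressed intracellularly from a pBAD plasmid library in pooled LB shake-flask culture, induced with 0.3% L-arabinose, DNA abundance read by NGS, three biological replicates, DESeq2 with apeglm shrinkage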
Experiment: shrunken log2 fold change of peptide-encoding DNA abundance (4.5 h post-induction vs induction); higher = less antimicrobial activity (less host growth inhibition)
Conditions: time post-induction: 4.5 h; library: site-saturation at positions 5, 18, 19, 20
Label scheme for shrunken log2 fold change: lower than -0.02 is label 0, -0.02 and above is label 1.

Study these solved cases before continuing.
recordSequence	testedTarget	classification
RRIRTRPPRLPRPRPRPAYFPRP	Escherichia coli TOP10	label 1
RRIRTRPPRLPRPRPRPHTHPRP	Escherichia coli TOP10	label 0
RRIRGRPPRLPRPRPRPETSPRP	Escherichia coli TOP10	label 1

Req: Reported shrunken log2 fold change at or above -0.02? RRIRTRPPRLPRPRPRPVHLPRP
Resp: label 0

Req: Ok, now RRIRMRPPRLPRPRPRPTEMPRP
Resp: label 1

Req: Ok, now RRIRARPPRLPRPRPRPMYIPRP
Resp: label 0

Req: Ok, now RRIRDRPPRLPRPRPRPFGIPRP
Resp: label 1

Req: Ok, now RRIRSRPPRLPRPRPRPGQSPRP
Resp: label 1

Req: Ok, now RRIRHRPPRLPRPRPRPFWSPRP
Resp: label 0

Req: Ok, now RRIRVRPPRLPRPRPRPRCRPRP
Resp: label 0

Req: Ok, now RRIRARPPRLPRPRPRPRFHPRP
Resp: label 0

Req: Ok, now RRIRVRPPRLPRPRPRPIPPPRP
Resp: label 0

Req: Ok, now RRIRPRPPRLPRPRPRPSDPPRP
Resp: label 0

Req: Ok, now RRIRNRPPRLPRPRPRPQPRPRP
Resp: label 1
